B1: glmS ribozyme (parent)
chain: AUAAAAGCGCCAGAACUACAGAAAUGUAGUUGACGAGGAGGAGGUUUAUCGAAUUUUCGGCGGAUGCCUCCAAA

variants of: B1; experiment: self-cleavage kobs at 40 uM GlcN6P; higher = faster cleavage; RNA array; conditions: with glucosamine-6-phosphate
Fewer inactive variants are shown than the library holds.
self-cleavage kobs at 40 uM GlcN6P reference

Worked cases, answers included:
* C8A G40U | < 1e-05 s⁻¹
* A12C C68A | < 1e-05 s⁻¹
* A36G G62U | < 1e-05 s⁻¹
* A42G U47A | 0.000848 s⁻¹
* G13C U30C | < 1e-05 s⁻¹

For this variant ( U31A G66A ), measured self-cleavage kobs at 40 uM GlcN6P is 0.000105 s⁻¹

For this variant ( U31C A39G C50U U54G C58A G60C G62U ), measured self-cleavage kobs at 40 uM GlcN6P is < 1e-05 s⁻¹

For this variant ( C16A G43A ), measured self-cleavage kobs at 40 uM GlcN6P is < 1e-05 s⁻¹
